Source listed as the Human Domainome abundance scans (Beltran et al. 2025).

B1: Cold shock protein CspB, residues 1 to 66; numbered along this chain, P41016 (parent)
chain: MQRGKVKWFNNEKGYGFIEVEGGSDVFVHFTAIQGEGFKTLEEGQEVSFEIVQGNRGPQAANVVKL

Variants of: B1
Assay: abundance fitness (aPCA) (normalised: wild type 0, dead -1); higher = more abundant; growth selection in yeast, the domain comes from the species named
Settings: Bacillus caldolyticus
# if value of abundance fitness reaches -0.07, tag y; if it stays below, tag n

Here's what some known entries look like.
A32H | n
G14F | n
T40V | y
M1Q | y
I33C | n
V28Q | n
V20R | y
G35F | y
I18P | n
A32W | n

abundance fitness >= -0.07 for F27P ?
n
